tested on: HEK293; test: Selectivity ratio of Ki for human 5-HT7 receptor expressed in HEK293 cells to Ki for human 5-HT1A receptor expressed in HEK293 cells; format: cell-based
Response field label: string, one of Met (Ratio Ki strictly below 6) or Not met.

hey, is Ratio Ki for "NC(=O)[C@@H]1Cc2ccccc2CN1C(=O)CCCCCCN1CCN(c2noc3ccccc23)CC1" lower than 6 or not? Met

For this molecule, is Ratio Ki lower than 6? "CSc1ccccc1N1CCN(CCCCCCC(=O)N2Cc3ccccc3C[C@H]2C(N)=O)CC1" Not met

Strictly below 6 in Ratio Ki? "NC(=O)[C@@H]1CCCN1C(=O)CCCCN1CCN(c2noc3ccccc23)CC1" Met

Dear colleague, could you confirm whether Ratio Ki of "NC(=O)[C@@H]1Cc2ccccc2CN1C(=O)CCCCCN1CCN(c2ccc(F)cc2)CC1" falls below 6? Thanks. Met

Threshold test, Ratio Ki < 6: "NC(=O)[C@@H]1CCCN1C(=O)CCCCCCN1CCN(c2noc3ccccc23)CC1" Met

Hi there! Is Ratio Ki for "CSc1ccccc1N1CCN(Cc2ccc(C(=O)N3CCC[C@H]3C(N)=O)cc2)CC1" below 6, do you know? Met

hey, is Ratio Ki for "NC(=O)[C@@H]1Cc2ccccc2CN1C(=O)CCCCN1CCN(c2ccc(F)cc2)CC1" lower than 6 or not? Met

Does the reported Ratio Ki of the following molecule sit strictly below 6? "NC(=O)[C@@H]1Cc2ccccc2CN1C(=O)CCCCCN1CCN(c2ccccc2Cl)CC1" Met

Strictly below 6: is that where Ratio Ki of "NC(=O)[C@@H]1Cc2ccccc2CN1C(=O)CCCCCN1CCN(c2ccccc2O)CC1" sits? Not met

Say whether its Ratio Ki is strictly beneath 6. Entry: "CSc1ccccc1N1CCN(CCCCC(=O)N2Cc3ccccc3C[C@H]2C(N)=O)CC1" Met

Does the reported Ratio Ki of the following molecule sit strictly below 6? "CSc1ccccc1N1CCN(Cc2ccc(C(=O)N3Cc4ccccc4C[C@H]3C(N)=O)cc2)CC1" Met

Quick check: does "CSc1ccccc1N1CCN(CCCCCC(=O)N2Cc3ccccc3C[C@H]2C(N)=O)CC1" have Ratio Ki under 6? Not met

Bench note: check whether "NC(=O)[C@@H]1CCCN1C(=O)CCCCCN1CCN(c2cccc(Cl)c2Cl)CC1" shows Ratio Ki below 6 Not met

For this molecule, is Ratio Ki lower than 6? "CSc1ccccc1N1CCN(CCCCCC(=O)N2CCC[C@H]2C(N)=O)CC1" Not met

Please let me know if "NC(=O)[C@@H]1Cc2ccccc2CN1C(=O)CCCCN1CCN(c2ccc(Cl)cc2)CC1" shows Ratio Ki below 6. Met

Strictly below 6 in Ratio Ki? "NC(=O)[C@@H]1Cc2ccccc2CN1C(=O)CCCCCN1CCN(c2cccc(Cl)c2)CC1" Met

Threshold test, Ratio Ki < 6: "CSc1ccccc1N1CCN(CCCCC(=O)N2CCC[C@H]2C(N)=O)CC1" Met
